Overview of reported highest non-toxic concentration (selected concentration) across a group of compounds:
- Tested on: SH-SY5Y human neuroblastoma cells
- assay text: Dose-response cell viability screening, MTT reduction assay
- Assay type: cell-based
- test parameters: SH-SY5Y cells exposed for 25 h
Answer in µM, number only, no unit symbol.

Guide cases for highest non-toxic concentration (selected concentration), answers given:
CCOC(=O)C1=C(O)C(C(C)C)NC1=O (stereo not shown) = 75
O=C1C=C(NCCN2CCN(Cc3ccccc3)CC2)C(Cc2ccccc2)N1 (stereo not shown) = 10
CC(C)C1NC(=O)C=C1NCCN1CCN(Cc2ccccc2)CC1 (stereo not shown) = 20

Input line: Indicate the recorded highest non-toxic concentration (selected concentration) value for this compound: CCOC(=O)C1=C(O)C(Cc2ccccc2)NC1=O (stereo not shown)
Output line: 75

====

- assay text: Metal complexation, Cu(II)/L system
- Type: physicochemical
- test parameters: calculated at pH 7.4; read-out: conditional dissociation constant (K’d) for the copper complex
assay readout: pKd
Keep in mind that pKd stands for -log10 of concentration in molar terms.

Input line: Indicate the recorded pKd value for this compound: CCOC(=O)C1=C(O)C(C(C)C)NC1=O (stereo not shown) [Compound 1]
Output line: 4.08

====

Overview of reported pIC50 across a group of compounds:
- target desc: AChE of electroforus electricus (electric eel) (Electrophorus electricus)
- Sequence (O42275 24-633): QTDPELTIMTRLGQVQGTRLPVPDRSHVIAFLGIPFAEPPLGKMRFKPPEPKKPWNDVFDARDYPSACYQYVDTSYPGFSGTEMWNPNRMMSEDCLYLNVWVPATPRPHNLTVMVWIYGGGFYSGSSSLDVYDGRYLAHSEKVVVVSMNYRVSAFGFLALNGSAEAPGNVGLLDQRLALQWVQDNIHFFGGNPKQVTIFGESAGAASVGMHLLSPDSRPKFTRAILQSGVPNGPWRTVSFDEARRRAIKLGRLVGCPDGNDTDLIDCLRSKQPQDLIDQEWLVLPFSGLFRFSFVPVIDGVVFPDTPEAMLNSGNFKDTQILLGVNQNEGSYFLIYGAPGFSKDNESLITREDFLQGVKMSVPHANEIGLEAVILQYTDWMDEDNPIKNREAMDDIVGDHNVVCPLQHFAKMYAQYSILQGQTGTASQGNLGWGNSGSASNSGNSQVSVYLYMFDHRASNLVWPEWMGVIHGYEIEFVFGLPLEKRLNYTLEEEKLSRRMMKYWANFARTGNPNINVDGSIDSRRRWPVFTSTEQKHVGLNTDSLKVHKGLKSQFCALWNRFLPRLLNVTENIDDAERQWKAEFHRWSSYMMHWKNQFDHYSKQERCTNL
- assay text: biochemical
- test parameters: AChE from electric eel; mean of three independent experiments ± SEM; read-out: eeAChEi IC50
Keep in mind that pIC50 stands for -log10 of concentration in molar terms.

Input line: Indicate the recorded pIC50 value for this compound: CCOC(=O)C1=C(O)C(C(C)C)NC1=O (centres unmarked)
Output line: 4.38

Input line: Indicate the recorded pIC50 value for this compound: CC(C)C1NC(=O)C=C1NCCN1CCN(Cc2ccccc2)CC1 (centres unmarked)
Output line: 4.62

Input line: Indicate the recorded pIC50 value for this compound: CCOC(=O)C1=C(O)C(Cc2ccccc2)NC1=O (centres unmarked)
Output line: 4.24

Input line: Indicate the recorded pIC50 value for this compound: O=C1C=C(NCCN2CCN(Cc3ccccc3)CC2)C(Cc2ccccc2)N1 (centres unmarked)
Output line: 4.80

Input line: Indicate the recorded pIC50 value for this compound: CCOC(=O)C1=C(O)C(C)NC1=O (centres unmarked)
Output line: 4.36

====

- target desc: Aβ1-42 (Homo sapiens, UniProt P05067)
- Construct: Amyloid β peptide (Aβ1-42) was purchased from GeneCust as a lyophilised powder; purchased GeneCust
- Sequence (P05067 672-713 limits assumed): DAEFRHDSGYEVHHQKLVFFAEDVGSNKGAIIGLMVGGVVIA
- assay text: biochemical
- test parameters: Aβ1-42; inhibitor 40 µM; SEM < 10%; read-out: Inhib. Aβ Aggreg. Self-Induced
- Method: The anti-amyloidogenic activity of all the compounds was also evaluated in vitro, in the absence and in presence of Cu(II), by measuring the fluorescence emission of Thioflavin T (ThT). The spectrofluorimetric method, based on the fluorescence emission of thioflavin T (ThT), was used to study the Aβ1-42 aggregation inhibition. […] Each experiment was composed of an assay and a blank sample, where the blank sample lacks Aβ1-42, to monitor the effect of the compounds on the fluorescence emission. […]
assay readout: inhibition at 40 µM (%)
Answer in %, number only, no unit symbol.

Guide cases for inhibition at 40 µM, answers given:
CC[C@H](C)[C@@H]1NC(=O)C(C(C)=O)=C1O (stereo in doubt) = 25.2
CCOC(=O)C1=C(O)C(C(C)C)NC1=O (stereo not drawn) = 32.9
CCOC(=O)C1=C(O)C(C)NC1=O (stereo not drawn) = 57.4

Input line: Indicate the recorded inhibition at 40 µM value for this compound: CCOC(=O)C1=C(O)C(Cc2ccccc2)NC1=O (stereo not drawn)
Output line: 12.4
